targetUnderTest: T1, human Y5 receptor (human, UniProt Q15761 1-445)
T1 construct: also called CG-19; hY5
T1 sequence: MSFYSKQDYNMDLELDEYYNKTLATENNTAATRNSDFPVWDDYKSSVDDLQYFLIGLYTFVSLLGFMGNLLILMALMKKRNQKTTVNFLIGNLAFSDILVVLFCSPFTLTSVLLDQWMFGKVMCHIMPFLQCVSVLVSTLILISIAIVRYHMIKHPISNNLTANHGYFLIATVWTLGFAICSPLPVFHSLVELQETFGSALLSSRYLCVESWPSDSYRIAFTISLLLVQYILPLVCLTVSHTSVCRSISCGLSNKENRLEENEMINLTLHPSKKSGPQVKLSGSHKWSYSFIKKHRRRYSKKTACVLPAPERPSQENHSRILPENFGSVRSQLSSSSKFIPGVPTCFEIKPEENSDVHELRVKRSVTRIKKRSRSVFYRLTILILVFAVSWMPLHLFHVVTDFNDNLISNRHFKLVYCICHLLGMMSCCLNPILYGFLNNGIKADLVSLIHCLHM
assayInfo: 125I-PYY displacement, COS-7 membranes
propertyLabel: Ki (nM)

[I] PLEPVYPGDNATPEQMAQYAADLRRYINMLTRPRY (peptide, UniProt P01298 31-65, looked up, range 2-36; Range counted on the mature peptide) [human PP2-36]
[II] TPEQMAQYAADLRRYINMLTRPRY (peptide, UniProt P01298 42-65, looked up, range 13-36; Range counted on the mature peptide) [human PP13-36]
Identify the entry with the smaller Ki: I or II . // respond with label for picked entry I
(I: 2.1 nM, II: 720 nM)
